molecules and their reported melting point
Attribute Measured: melting point

>>> value_observed("COc1cc(OC)cc(N2Cc3cnc([S+](C)[O-])nc3NC2=O)c1 (centres unmarked)")
"220 to 222 °C"
>>> value_observed("CN1CCN(c2ccc(Nc3ncc4cnc(=O)n(C)c4n3)cc2)CC1")
"259 to 260 °C (dec.)"
>>> value_observed("CN(C)C1CCN(c2ccc(Nc3ncc4cnc(=O)n(C)c4n3)cc2)CC1")
"198 to 202 °C (dec.)"
>>> value_observed("CCN1C(=O)N(c2cc(OC)cc(OC)c2Cl)Cc2cnc(SC)nc21")
"189 to 191 °C"
>>> value_observed("CC(C)N1C(=O)NCc2cnc(Nc3ccc(N4CCN(C)CC4)cc3)nc21")
"234 to 237 °C (dec.)"
>>> value_observed("O=C1NCc2cnc(Nc3ccc(-n4cccc4)cc3)nc2N1C1CCCC1")
"> 200 °C (dec.)"
>>> value_observed("Cn1c(=O)ncc2cnc(Nc3ccc(-n4cccn4)cc3)nc21")
"> 290 °C (dec.)"
>>> value_observed("C=CCn1c(=O)c2cnc(-n3ccnc3)nc2n(C(C)C)c1=O")
"158 to 160 °C"
>>> value_observed("CC(C)N1C(=O)NCc2cnc(Nc3ccc(-n4cccn4)cc3)nc21.O=C(O)C(F)(F)F")
"249 to 252 °C (dec.)"
>>> value_observed("CN1CCN(c2ccc(Nc3ncc4c(n3)N(C3CC5CCC3C5)C(=O)NC4)cc2)CC1 (centres unmarked)")
"251 to 254 °C (dec.)"
>>> value_observed("CC(C)N1C(=O)NCc2cnc(Nc3ccc(N4CCC(N(C)C)CC4)cc3)nc21.O=C(O)C(F)(F)F")
"215 to 217 °C (dec.)"
>>> value_observed("CN1CCN(c2ccc(Nc3ncc4cnc(=O)n(C5CC6CCC5C6)c4n3)cc2)CC1 (centres unmarked)")
"> 210 °C (dec.)"
>>> value_observed("CCN(CC)CCOc1ccc(Nc2ncc3c(=O)n(Cc4ccc(OC)cc4)c(=O)n(C(C)C)c3n2)cc1")
"139 to 141 °C"
>>> value_observed("CC(C)N1C(=O)NCc2cnc(Nc3ccc(N4CCC(CCCN5CCOCC5)CC4)cc3)nc21")
"203 to 205 °C (dec.)"

###

Target: cdk2/cyclinE (Homo sapiens, UniProt P24941)
Assay: Cyclin-dependent kinase assay cdk2/cyclinE
Settings: read-out: cdk2/E IC50
pIC50: −log10 of the molar value.
Attribute Measured: pIC50

>>> value_observed("O=C1NCc2cnc(Nc3ccc(N4CCC(CCN5CCOCC5)CC4)cc3)nc2N1C1CCCC1 [Example 21]")
5.52
>>> value_observed("CN1CCN(c2ccc(Nc3ncc4c(n3)N(C3CC5CCC3C5)C(=O)NC4)cc2)CC1 (stereo not drawn) [Example 27]")
5.96
>>> value_observed("CC(C)N1C(=O)NCc2cnc(Nc3ccc(N4CCC(CCCN5CCOCC5)CC4)cc3)nc21 [Example 26]")
4.57

###

Target: cdk2/cyclinE (Homo sapiens, UniProt P24941)
Assay: Cyclin-dependent kinase assay cdk2/cyclinE
Assay type: biochemical
Settings: read-out: cdk2/E % Inhibition at 40 μM
molecules and their reported inhibition at 40 µM
Attribute Measured: inhibition at 40 µM

>>> value_observed("O=C1NCc2cnc(Nc3ccc(-n4cccc4)cc3)nc2N1C1CCCC1 [Example 14]")
"38%"
>>> value_observed("C=CCn1c(=O)c2cnc(Nc3ccc(N4CCN(C)CC4)cc3)nc2n(C(C)C)c1=O [Example 70]")
"0%"
>>> value_observed("CN1C(=O)NCc2cnc(Nc3ccc(N4CCC(O)CC4)cc3)nc21.O=C(O)C(F)(F)F [Example 29, trifluoroacetic acid]")
"28%"
>>> value_observed("CC(C)N1C(=O)NCc2cnc(Nc3ccc(N4CCN(C)CC4)cc3)nc21 [Example 22]")
"68%"
>>> value_observed("C=CCn1c(=O)c2cnc(Nc3ccc(OCCN(CC)CC)cc3)nc2n(C(C)C)c1=O [Example 72]")
"0%"
>>> value_observed("CN1CCN(c2ccc(Nc3ncc4cnc(=O)n(C)c4n3)cc2)CC1 [Example 45]")
"16%"
>>> value_observed("CN1CCN(c2ccc(Nc3ncc4c(n3)N(C)C(=O)NC4)cc2)CC1.O=C(O)C(F)(F)F [Example 28, trifluoroacetic acid]")
"22%"
>>> value_observed("CN1C(=O)NCc2cnc(Nc3ccc(-n4cccn4)cc3)nc21.O=C(O)C(F)(F)F [Example 31, trifluoroacetic acid]")
"21%"
>>> value_observed("Cn1c(=O)ncc2cnc(Nc3ccc(-n4cccn4)cc3)nc21 [Example 47]")
"41%"

###

Attribute Measured: melting point

>>> value_observed("COc1ccc(Nc2ncc3c(n2)N(C2CCCC2)C(=O)NC3)cc1 [Example 9]")
"247 to 249 °C (dec.)"
>>> value_observed("CN1C(=O)NCc2cnc(Nc3ccc(N4CCC(N(C)C)CC4)cc3)nc21.O=C(O)C(F)(F)F [Example 30]")
"190 to 191 °C (dec.)"
>>> value_observed("O=c1ncc2cnc(Nc3ccc(-n4cccn4)cc3)nc2n1C1CCCC1 [Example 36]")
"> 135 °C (dec.)"
>>> value_observed("O=C1NCc2cnc(Nc3ccc(N4CCCC(O)C4)cc3)nc2N1C1CCCC1 (centres unmarked) [Example 16]")
"> 200 °C (dec.)"
>>> value_observed("O=c1ncc2cnc(Nc3ccc(N4CCC(O)CC4)cc3)nc2n1C1CCCC1 [Example 33]")
"> 185 °C (dec.)"
>>> value_observed("CCN(CC)CCCCNc1ncc2c(n1)N(CC)C(=O)N(c1cc(OC)cc(OC)c1)C2 (hydrate or solvate) [Example 53]")
"83 to 85 °C"
>>> value_observed("CN1CCN(c2ccc(Nc3ncc4c(n3)N(C)C(=O)NC4)cc2)CC1.O=C(O)C(F)(F)F [Example 28]")
"234 to 235 °C (dec.)"
>>> value_observed("CN1CCN(c2ccc(Nc3ncc4c(n3)N(C3CCCC3)C(=O)NC4)cc2)CC1 [Example 11]")
"236 to 239 °C (dec.)"

###

molecules and their reported melting point
Attribute Measured: melting point

>>> value_observed("CCN(CC)CCCCNc1ncc2c(n1)NC(=O)N(c1cc(OC)cc(OC)c1)C2 [Example 52]")
"203 to 207 °C"
>>> value_observed("CCNc1nc(SC)ncc1CNc1cc(OC)cc(OC)c1Cl [Example 62]")
"116.5 to 118.5 °C"
>>> value_observed("C=CCn1c(=O)c2cnc(Nc3ccc(N4CCN(C)CC4)cc3)nc2n(C(C)C)c1=O [Example 70]")
"176 to 177 °C"
>>> value_observed("COc1ccc(Cn2c(=O)c3cnc(Nc4ccc(N5CCN(C)CC5)cc4)nc3n(C(C)C)c2=O)cc1 [Example 71]")
"215 to 216 °C"
>>> value_observed("CCN(CC)CCOc1ccc(Nc2ncc3cnc(=O)n(C4CCCC4)c3n2)cc1C [Example 34]")
"> 95 °C (dec.)"
>>> value_observed("CN1C(=O)NCc2cnc(Nc3ccc(-n4cccn4)cc3)nc21.O=C(O)C(F)(F)F [Example 31]")
"250 to 251 °C (dec.)"
>>> value_observed("CC(C)N1C(=O)NCc2cnc([S+](C)[O-])nc21 (centres unmarked) [Example 6]")
"218 to 219 °C (dec.)"
>>> value_observed("C=CCn1c(=O)c2cnc(Nc3ccc(OCCN(CC)CC)cc3)nc2n(C(C)C)c1=O [Example 72]")
"90 to 96 °C"

###

compounds and their reported pIC50
Molecular target: cdk4/D (Homo sapiens)
Sequence (P11802 whole entry, species assumed): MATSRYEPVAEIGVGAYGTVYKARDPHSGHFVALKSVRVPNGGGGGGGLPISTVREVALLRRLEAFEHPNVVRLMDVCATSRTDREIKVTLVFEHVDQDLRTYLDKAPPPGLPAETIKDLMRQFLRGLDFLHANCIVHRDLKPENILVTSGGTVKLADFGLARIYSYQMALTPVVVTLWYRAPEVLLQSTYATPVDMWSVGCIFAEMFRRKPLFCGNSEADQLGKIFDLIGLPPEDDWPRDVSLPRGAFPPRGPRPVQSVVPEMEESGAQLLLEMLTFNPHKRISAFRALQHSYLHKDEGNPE
Sequence (P24385 whole entry partner, species assumed): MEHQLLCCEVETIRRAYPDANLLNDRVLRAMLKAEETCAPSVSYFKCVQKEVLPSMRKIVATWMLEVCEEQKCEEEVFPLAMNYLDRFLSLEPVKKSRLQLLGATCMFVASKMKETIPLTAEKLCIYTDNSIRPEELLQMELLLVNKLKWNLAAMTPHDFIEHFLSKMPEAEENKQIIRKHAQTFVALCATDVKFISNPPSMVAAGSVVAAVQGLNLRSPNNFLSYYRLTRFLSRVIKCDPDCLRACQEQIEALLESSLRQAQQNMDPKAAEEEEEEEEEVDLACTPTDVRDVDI
Test: Cyclin-Dependent Kinase 4 (cdk4) enzyme assay, 32P incorporation
Settings: 25 μM ATP, retinoblastoma substrate
pIC50: −log10 of the molar value.
Attribute Measured: pIC50

>>> value_observed("O=C1NCc2cnc(Nc3ccc(N4CCC(CCN5CCOCC5)CC4)cc3)nc2N1C1CCCC1")
6.78
>>> value_observed("CN1CCN(c2ccc(Nc3ncc4c(n3)N(C3CC5CCC3C5)C(=O)NC4)cc2)CC1 (stereo not drawn)")
6.11
>>> value_observed("CC(C)n1c(=O)ncc2cnc(Nc3ccc(N4CCC(CCCN5CCOCC5)CC4)cc3)nc21")
6.27
>>> value_observed("CN(C)C1CCN(c2ccc(Nc3ncc4c(n3)N(C3CCCC3)C(=O)NC4)cc2)CC1")
6.51
>>> value_observed("O=C1NCc2cnc(Nc3ccc(-n4cccn4)cc3)nc2N1C1CCCC1")
5.74
>>> value_observed("CN1CCN(c2ccc(Nc3ncc4cnc(=O)n(C5CC6CCC5C6)c4n3)cc2)CC1 (stereo not drawn)")
7.74

###

Target: cdk2/cyclinE (Homo sapiens)
Test: Cyclin-dependent kinase assay cdk2/cyclinE
Type: biochemical
Settings: read-out: cdk2/E IC50
Attribute Measured: IC50 (µM)

>>> value_observed("O=C1NCc2cnc(Nc3ccc(-n4cccn4)cc3)nc2N1C1CCCC1")
4.6
>>> value_observed("CN(C)C1CCN(c2ccc(Nc3ncc4c(n3)N(C3CCCC3)C(=O)NC4)cc2)CC1")
3.55
>>> value_observed("CC(C)n1c(=O)ncc2cnc(Nc3ccc(N4CCC(CCCN5CCOCC5)CC4)cc3)nc21")
38
>>> value_observed("CN1CCN(c2ccc(Nc3ncc4cnc(=O)n(C5CC6CCC5C6)c4n3)cc2)CC1 (stereo not shown)")
1.2
